Source of measurements: patent US4147861A

Mycobacterium smegmatis ATCC 607: reported MIC for various compounds.
// units = µg/mL; emit number, no label

Task item: // returns reported MIC for input `CNC[C@@H]1CC[C@@H](N)[C@@H](O[C@H]2[C@H](O)[C@@H](O[C@H]3O[C@H](CO)[C@@H](O)[C@H](N)[C@H]3O)[C@H](NC(=O)[C@@H](O)CN)C[C@@H]2N)O1`
Reply: 0.39

Task item: // returns reported MIC for input `CNC[C@@H]1CC[C@@H](N)[C@@H](O[C@H]2[C@H](O)[C@@H](O[C@H]3O[C@H](CO)[C@@H](O)[C@H](N)[C@H]3O)[C@H](NC(=O)[C@@H](O)CCN)C[C@@H]2N)O1`
Reply: 0.2

Task item: // returns reported MIC for input CNC[C@@H]1CC[C@@H](N)[C@@H](O[C@H]2[C@H](O)[C@@H](O[C@H]3O[C@H](CO)[C@@H](O)[C@H](N)[C@H]3O)[C@H](NC(=O)C(O)CN)C[C@@H]2N)O1 (mixture of isomers)
Reply: 0.39

Task item: // returns reported MIC for input `CNC[C@@H]1CC[C@@H](N)[C@@H](O[C@H]2[C@H](O)[C@@H](O[C@H]3O[C@H](CO)[C@@H](O)[C@H](N)[C@H]3O)[C@H](NC(=O)[C@@H](O)CCCN)C[C@@H]2N)O1`
Reply: 0.78

* * *

Test system: Salmonella enteritidis 1891
Experiment: Minimum inhibitory concentration, serial dilution method on nutrient agar
Type: cell-based
Conditions: Salmonella enterica; Salmonella enteritidis 1891; 37° C., 18 hours; read-out: Minimum Inhibitory Concentrations
For each entry below, report its MIC value.
// units = µg/mL; emit number, no label

Task item: // returns reported MIC for input CNC[C@@H]1CC[C@@H](N)[C@@H](O[C@H]2[C@H](O)[C@@H](O[C@H]3O[C@H](CO)[C@@H](O)[C@H](N)[C@H]3O)[C@H](NC(=O)[C@@H](O)CCN)C[C@@H]2N)O1 [AHB-MDKB]
Reply: 1.56

Task item: // returns reported MIC for input NCC[C@H](O)C(=O)N[C@@H]1C[C@H](N)[C@@H](O[C@H]2O[C@H](CN)[C@@H](O)[C@H](O)[C@H]2O)[C@H](O)[C@H]1O[C@H]1O[C@H](CO)[C@@H](O)[C@H](N)[C@H]1O [AHB-KMA, reference compound]
Reply: 0.78

Task item: // returns reported MIC for input CNC[C@@H]1CC[C@@H](N)[C@@H](O[C@H]2[C@H](O)[C@@H](O[C@H]3O[C@H](CO)[C@@H](O)[C@H](N)[C@H]3O)[C@H](NC(=O)[C@@H](O)CCCN)C[C@@H]2N)O1 [AHV-MDKB]
Reply: 0.78

Task item: // returns reported MIC for input CNC[C@@H]1CC[C@@H](N)[C@@H](O[C@H]2[C@H](O)[C@@H](O[C@H]3O[C@H](CO)[C@@H](O)[C@H](N)[C@H]3O)[C@H](NC(=O)[C@@H](O)CN)C[C@@H]2N)O1 [L-IS-MDKB]
Reply: 0.78

* * *

Test system: Pseudomonas aeruginosa 99
Assay: Minimum inhibitory concentration, serial dilution method on nutrient agar
Assay type: cell-based
Details: 37° C., 18 hours, read-out: Minimum Inhibitory Concentrations
experimental.endpoint: MIC (µg/mL)
// units = µg/mL; emit number, no label

Task item: // returns reported MIC for input NCC[C@H](O)C(=O)N[C@@H]1C[C@H](N)[C@@H](O[C@H]2O[C@H](CN)[C@@H](O)[C@H](O)[C@H]2O)[C@H](O)[C@H]1O[C@H]1O[C@H](CO)[C@@H](O)[C@H](N)[C@H]1O [AHB-KMA, reference compound]
Reply: 6.25

Task item: // returns reported MIC for input `CNC[C@@H]1CC[C@@H](N)[C@@H](O[C@H]2[C@H](O)[C@@H](O[C@H]3O[C@H](CO)[C@@H](O)[C@H](N)[C@H]3O)[C@H](NC(=O)[C@@H](O)CCCN)C[C@@H]2N)O1`
Reply: 25

Task item: // returns reported MIC for input CNC[C@@H]1CC[C@@H](N)[C@@H](O[C@H]2[C@H](O)[C@@H](O[C@H]3O[C@H](CO)[C@@H](O)[C@H](N)[C@H]3O)[C@H](NC(=O)C(O)CN)C[C@@H]2N)O1 (mixture of isomers)
Reply: 25

Task item: // returns reported MIC for input `CNC[C@@H]1CC[C@@H](N)[C@@H](O[C@H]2[C@H](O)[C@@H](O[C@H]3O[C@H](CO)[C@@H](O)[C@H](N)[C@H]3O)[C@H](NC(=O)[C@@H](O)CN)C[C@@H]2N)O1`
Reply: 25

Task item: // returns reported MIC for input `CNC[C@@H]1CC[C@@H](N)[C@@H](O[C@H]2[C@H](O)[C@@H](O[C@H]3O[C@H](CO)[C@@H](O)[C@H](N)[C@H]3O)[C@H](NC(=O)[C@@H](O)CCN)C[C@@H]2N)O1`
Reply: 25

* * *

Tested on: Pseudomonas aeruginosa GN315
Test: Minimum inhibitory concentration, serial dilution method on nutrient agar
Assay type: cell-based
Settings: Pseudomonas aeruginosa GN315; 37° C., 18 hours; read-out: Minimum Inhibitory Concentrations
For each entry below, report its MIC value.
// units = µg/mL; emit number, no label

Task item: // returns reported MIC for input CNC[C@@H]1CC[C@@H](N)[C@@H](O[C@H]2[C@H](O)[C@@H](O[C@H]3O[C@H](CO)[C@@H](O)[C@H](N)[C@H]3O)[C@H](NC(=O)C(O)CN)C[C@@H]2N)O1 (mixture of isomers)
Reply: 12.5

Task item: // returns reported MIC for input `CNC[C@@H]1CC[C@@H](N)[C@@H](O[C@H]2[C@H](O)[C@@H](O[C@H]3O[C@H](CO)[C@@H](O)[C@H](N)[C@H]3O)[C@H](NC(=O)[C@@H](O)CCCN)C[C@@H]2N)O1`
Reply: 12.5

Task item: // returns reported MIC for input NCC[C@H](O)C(=O)N[C@@H]1C[C@H](N)[C@@H](O[C@H]2O[C@H](CN)[C@@H](O)[C@H](O)[C@H]2O)[C@H](O)[C@H]1O[C@H]1O[C@H](CO)[C@@H](O)[C@H](N)[C@H]1O [AHB-KMA, reference compound]
Reply: 100

Task item: // returns reported MIC for input `CNC[C@@H]1CC[C@@H](N)[C@@H](O[C@H]2[C@H](O)[C@@H](O[C@H]3O[C@H](CO)[C@@H](O)[C@H](N)[C@H]3O)[C@H](NC(=O)[C@@H](O)CN)C[C@@H]2N)O1`
Reply: 25
